Data origin, for the record: patent US20230192818A1

# testTarget: biotinylated SARS-CoV-2 S1 variant B.1.351 (Example 5) (SARS-CoV-2) (UniProt P0DTC2)
# procedureSummary: phage ELISA screening
assayEndpoint: ELISA
Output spec: single numeric token, no unit.

# annotated cases, reported ELISA shown
Query: Would you kindly share the measured ELISA for 12-10 (antibody, V domains shown) VH: QVQLVESGGGVVQPGRSLRLSCAASGFIFRSYAMHWVRQAPGKGLEWVAVISYDGSIKYYADSVKGRFTISRDNSKNTLYLQMNSLRAEDTAVYYCARTRGGSYYGAFDYWGQGTLVTVSS VL: EIVLTQSPATLSLSPGERATLSCRASQSVNSDLAWYQQKPGQAPRLLIYDASNRATGIPARFSGSGSGTDFTLTISSLEPEDFAVYYCQQRTDWPPATFGGGTKVEIK ?
Reply: 19.7

Query: Would you kindly share the measured ELISA for 11-20 (antibody, V domains shown) VH: QVQLVESGGGVVQPGRSLRLSCAASGFTFDDYAMHWVRQAPGKGLEWVAVISYDGSNKYYADSVKGRFTISRDNSKNTLYLQMNSLRAEDTAVYYCASPHSGSYWAAFDIWGQGTLVTVSS VL: EIVLTQSPATLSLSPGERATLSCRASQSVGSYLAWYQQKPGQAPRLLIYDAVNRATGIPARFSGSGSGTDFTLTISSLEPEDFAVYYCQQRSLWPFGGGTKVEIK ?
Reply: 3.42

New cases:
Query: Would you kindly share the measured ELISA for 11-11 (antibody, V domains shown) VH: QVQLVESGGGVVQPGRSLRLSCAASGFTFDNYAMHWVRQAPGKGLEWVAVISYDGSNKYYADSVKGRFTISRDNSKNTLYLQMNSLRAEDTAVYYCLREGILWDVWGQGTLVTVSS VL: EIVLTQSPATLSLSPGERATLSCRASHNINNFLAWYQQKPGQAPRLLIYDTSNRATGIPARFSGSGSGTDFTLTISSLEPEDFAVYYCQQGRNWPPSSFGGGTKVEIK ?
Reply: 6.43
